From: patent US20240018145A1

- Test system: FLU A (PR/8/34)
- Assay Details: Flu A Neuraminidase Antiviral Assay
- Format: cell-based
Assay Endpoint: EC50

Known EC50 results, listed for orientation:
Compound	Assay Endpoint	Endpoint Result
CN1C(=O)c2c(O)c(=O)ccn2N2C(c3ccccc3)C(CCC(F)F)CCC12 (single isomer, unassigned) [Compound 124A]	EC50	871 nM
CN1C(=O)c2c(O)c(=O)ccn2N2C(c3ccccc3Br)C(CC(F)(F)F)CCC12 (single isomer, unassigned) [Compound 89A]	EC50	298 nM
CCC1(c2ccccc2)CCC2N(C)C(=O)c3c(O)c(=O)ccn3N21 (single isomer, unassigned) [Compound 62C]	EC50	7490 nM
CN1C(=O)c2c(O)c(=O)ccn2N2C(c3ccccc3)CCCC12 (single isomer, unassigned) [Compound 1A]	EC50	> 8100 nM
Cc1cc(=O)c(O)c2n1N1C(c3ccccc3)C(CC(F)(F)F)CCC1N(C)C2=O (single isomer, unassigned) [Compound 132A]	EC50	> 810 nM

Next, consider the following compound.
*Q* Hi! What's the reported EC50 for CN1C(=O)c2c(O)c(=O)ccn2N2C(c3ccccc3Cl)C(CCO)CCC12 (stereo not drawn) [Compound 66A] on FLU A (PR/8/34)?
*A* > 8100 nM

* * *

- System: FLU A (PR/8/34)
- Assay Details: Flu A Neuraminidase Antiviral Assay
- Assay type: cell-based
So I've got a bunch of molecules here, and I need their EC50 values.
Give bare numbers, in nM.

Known EC50 results, listed for orientation:
Molecule	EC50 / nM
CN1C(=O)c2c(O)c(=O)ccn2N2C1CCCC2(C)c1ccccc1 (single isomer, unassigned) [Compound 18B]	356
CN1C(=O)c2c(O)c(=O)ccn2N2C1CCC(C)(CC(F)(F)F)C2c1ccccc1 (single isomer, unassigned) [Compound 71B]	18.5
CN1C(=O)c2c(O)c(=O)ccn2N2C(c3ccccc3F)C(CC(F)F)CCC12 (single isomer, unassigned) [Compound 113A]	3440
CN1C(=O)c2c(O)c(=O)ccn2N2C(c3ccccc3)C(CC(F)F)CCC12 (single isomer, unassigned) [Compound 129A]	2.3
CN1C(=O)c2c(O)c(=O)ccn2N2C(c3ccccc3)C(CC(F)(F)F)CCC12 (single isomer, unassigned) [Compound 118B]	3.1
CN1C(=O)c2c(O)c(=O)ccn2N2C(c3cccc(F)c3)C(CC(F)(F)F)CCC12 (single isomer, unassigned) [Compound 121B]	5.8
CN1C(=O)c2c(O)c(=O)ccn2N2C(c3ccccc3)C(CC(F)F)CCC12 (single isomer, unassigned) [Compound 129B]	196
CCC1(c2ccccc2)CCC2N(C)C(=O)c3c(O)c(=O)ccn3N21 (single isomer, unassigned) [Compound 62D]	7970
CN1C(=O)c2c(O)c(=O)ccn2N2C1CCC(C)(CC(F)(F)F)C2c1ccccc1 (single isomer, unassigned) [Compound 71A]	5910
Cc1ccccc1C1C(CC(F)(F)F)CCC2N(C)C(=O)c3c(O)c(=O)ccn3N12 (single isomer, unassigned) [Compound 120B]	1.9

Please go through the list and note EC50 for each molecule.
1. CCN1C(=O)c2c(O)c(=O)ccn2N2C(c3ccccc3)C(c3ccc(F)c(F)c3)CCC12 (single isomer, unassigned) [Compound 94B]
2. CN1C(=O)c2c(O)c(=O)ccn2N2C1CCCC2(C)c1cccc(Cl)c1 (single isomer, unassigned) [Compound 28A]
3. Cc1ccccc1C1N2C(CCC13CCC(F)(F)CC3)N(C)C(=O)c1c(O)c(=O)ccn12 (single isomer, unassigned) [Compound 70B]
4. Cc1ccccc1C1C(c2ccc(F)c(F)c2)CCC2N(C)C(=O)c3c(O)c(=O)ccn3N12 (single isomer, unassigned) [Compound 91A]
5. CCCC1CCC2N(CC)C(=O)c3c(O)c(=O)ccn3N2C1c1ccccc1F (single isomer, unassigned) [Compound 96B]
6. CN1C(=O)c2c(O)c(=O)ccn2N2C1CCC1(CCCC(F)(F)C1)C2c1ccccc1 (single isomer, unassigned) [Compound 75C]
7. Cc1c(F)cccc1C1C(CC(F)(F)F)CCC2N(C)C(=O)c3c(O)c(=O)ccn3N12 (single isomer, unassigned) [Compound 80B]

*A*
1. 8.6
2. 5.2
3. 2
4. 485
5. 2.2
6. 140
7. 3.3

* * *

- Test system: FLU A (PR/8/34)
- Assay Details: Flu A Neuraminidase Antiviral Assay
- Type: cell-based
Assay Endpoint: pEC50
One number for each entry, as −log10 of the molar value.

Compound	System Tested	pEC50
CN1C(=O)c2c(O)c(=O)ccn2N2C(c3ccccc3)CCCC12C (single isomer, unassigned) [Compound 59A]	FLU A (PR/8/34)	5.14
O=C1c2c(O)c(=O)ccn2N2C(c3ccccc3)CCCC2N1CC1CC1 (single isomer, unassigned) [Compound 56B]	FLU A (PR/8/34)	5.16

Please go through the list and note pEC50 for each compound.
1. CC1(c2ccccc2)CCCC2N(CC3COC3)C(=O)c3c(O)c(=O)ccn3N21 (single isomer, unassigned) [Compound 40A]
2. CN1C(=O)c2c(O)c(=O)ccn2N2C(c3ccccc3)C(Cc3ccccc3)CCC12 (single isomer, unassigned) [Compound 117B]

*A*
[7.84, 6.95]

* * *

- Tested on: FLU A (PR/8/34)
- Assay Details: Flu A Neuraminidase Antiviral Assay
- Assay type: cell-based
pEC50: −log10 of the molar value.
Assay Endpoint: pEC50

Known pEC50 results, listed for orientation:
Compound	pEC50
Cc1cccc(F)c1C1C(CC(F)(F)F)CCC2N(C)C(=O)c3c(O)c(=O)ccn3N12 (single isomer, unassigned) [Compound 77C]	< 6.09
CN1C(=O)c2c(O)c(=O)ccn2N2C1CCC(O)C2(C)c1ccccc1 (stereo not shown) [Compound 137C]	< 5.09

Please go through the list and note pEC50 for each compound.
1. CN1C(=O)c2c(O)c(=O)ccn2N2C(c3ccccc3)C(c3cc(F)c(F)cc3F)CCC12 (single isomer, unassigned) [Compound 86D]
2. CCC1(c2ccccc2)CCCC2N(C)C(=O)c3c(O)c(=O)ccn3N21 (single isomer, unassigned) [Compound 22C]

*A*
["< 6.09", "< 5.09"]

* * *

- Test system: FLU A (PR/8/34)
- Assay Details: Flu A Neuraminidase Antiviral Assay
- Assay type: cell-based
Assay Endpoint: EC50 (nM)
Numbers only, in nM.

Compound	Assay Endpoint	Units Text	Endpoint Result
CN1C(=O)c2c(O)c(=O)ccn2N2C(c3ccccc3C(F)(F)F)CCC12 (single isomer, unassigned) [Compound 15B]	EC50	nM	1450

Please go through the list and note EC50 for each compound.
1. CC1CC2N(C)C(=O)c3c(O)c(=O)ccn3N2C(C)(c2ccccc2)C1 (single isomer, unassigned) [Compound 43A]
2. CCN1C(=O)c2c(O)c(=O)cc(COC)n2N2C(c3ccccc3)C(CC(F)(F)F)CCC12 (stereo not drawn) [Compound 131F]

*A*
1: 1170; 2: 12.5

* * *

- System: FLU A (PR/8/34)
- Assay Details: Flu A Neuraminidase Antiviral Assay
- Type: cell-based
pEC50: −log10 of the molar value.
So I've got a bunch of compounds here, and I need their pEC50 values.

Please go through the list and note pEC50 for each compound.
1. COc1ccccc1C1CCCC2N(C)C(=O)c3c(O)c(=O)ccn3N12 (single isomer, unassigned) [Compound 19A]
2. CCCC1CCC2C(n3ccc(=O)c(O)c3C(=O)N2C)C1(O)c1ccccc1 (single isomer, unassigned) [Compound 166B]
3. CN1C(=O)c2c(O)c(=O)ccn2N2C(c3ccccc3)C(CCC(F)(F)F)CCC12C (single isomer, unassigned) [Compound 78A]
4. CN1C(=O)c2c(O)c(=O)ccn2N2C1CCCC2(C)c1c(F)cccc1F (single isomer, unassigned) [Compound 23A]

*A*
< 5.09
< 5.09
< 6.09
< 5.09

* * *

- System: FLU A (PR/8/34)
- Assay Details: Flu A Neuraminidase Antiviral Assay
- Assay type: cell-based
pEC50: −log10 of the molar value.
Assay Endpoint: pEC50

Molecule	pEC50
CCN1C(=O)c2c(O)c(=O)ccn2N2C1CCCC2(C)c1cccc(C2CC2)n1 (single isomer, unassigned) [Compound 55A]	< 6.09

Please go through the list and note pEC50 for each molecule.
1. CN1C(=O)c2c(O)c(=O)ccn2N2C(c3ccccc3)C(C3CCC(F)(F)CC3)CCC12 (single isomer, unassigned) [Compound 84A]
2. CN1C(=O)c2c(O)c(=O)ccn2N2C(c3ccccc3)C(O)CCC12 (stereo not shown) [Compound 135B]
3. CN1C(=O)c2c(O)c(=O)ccn2N2C(c3ccccc3)C3CCC(C3)C12 (single isomer, unassigned) [Compound 9D]

*A*
["< 6.09", "< 5.09", "< 5.09"]

* * *

- Test system: FLU A (PR/8/34)
- Assay Details: Flu A Neuraminidase Antiviral Assay
- Assay type: cell-based
So I've got a bunch of compounds here, and I need their EC50 values.

Please go through the list and note EC50 for each compound.
1. CCN1C(=O)c2c(O)c(=O)ccn2N2C1CCC1(CCC(F)(F)CC1)C2c1ccccc1 (single isomer, unassigned) [Compound 76A]
2. CCN1C(=O)c2c(O)c(=O)cc(COC)n2N2C(c3ccccc3)C(CC(F)(F)F)CCC12 (stereo not shown) [Compound 131B]
3. CCC1(c2ccccc2)CCC2N(C)C(=O)c3c(O)c(=O)ccn3N21 (single isomer, unassigned) [Compound 62B]
4. COCCN1C(=O)c2c(O)c(=O)ccn2N2C(c3ccc(F)cc3)CCCC12 (single isomer, unassigned)
5. CN1C(=O)c2c(O)c(=O)ccn2N2C1CCCC2(C)c1ncc(F)cc1F (single isomer, unassigned) [Compound 46B]

*A*
["> 810 nM", "> 810 nM", "> 8100 nM", "> 8100 nM", "> 8100 nM"]

Please go through the list and note EC50 for each compound.
1. Cc1cccc(C2(C)CCCC3N(CC(F)F)C(=O)c4c(O)c(=O)ccn4N32)n1 (single isomer, unassigned) [Compound 54A]
2. O=C1c2c(O)c(=O)ccn2N2C(c3ccccc3)C(CCC(F)(F)F)CCC2N1CC1CC1 (single isomer, unassigned) [Compound 100A]

*A*
1. > 810 nM
2. > 810 nM
